Biological target: Ribosomal protein S6 kinase alpha-1 (Homo sapiens) (UniProt Q15418);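 note: values are mean percent inhibition of RSK1 measured in the GSK PKIS kinase inhibitor set screen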
Sequence (Q15418 whole entry): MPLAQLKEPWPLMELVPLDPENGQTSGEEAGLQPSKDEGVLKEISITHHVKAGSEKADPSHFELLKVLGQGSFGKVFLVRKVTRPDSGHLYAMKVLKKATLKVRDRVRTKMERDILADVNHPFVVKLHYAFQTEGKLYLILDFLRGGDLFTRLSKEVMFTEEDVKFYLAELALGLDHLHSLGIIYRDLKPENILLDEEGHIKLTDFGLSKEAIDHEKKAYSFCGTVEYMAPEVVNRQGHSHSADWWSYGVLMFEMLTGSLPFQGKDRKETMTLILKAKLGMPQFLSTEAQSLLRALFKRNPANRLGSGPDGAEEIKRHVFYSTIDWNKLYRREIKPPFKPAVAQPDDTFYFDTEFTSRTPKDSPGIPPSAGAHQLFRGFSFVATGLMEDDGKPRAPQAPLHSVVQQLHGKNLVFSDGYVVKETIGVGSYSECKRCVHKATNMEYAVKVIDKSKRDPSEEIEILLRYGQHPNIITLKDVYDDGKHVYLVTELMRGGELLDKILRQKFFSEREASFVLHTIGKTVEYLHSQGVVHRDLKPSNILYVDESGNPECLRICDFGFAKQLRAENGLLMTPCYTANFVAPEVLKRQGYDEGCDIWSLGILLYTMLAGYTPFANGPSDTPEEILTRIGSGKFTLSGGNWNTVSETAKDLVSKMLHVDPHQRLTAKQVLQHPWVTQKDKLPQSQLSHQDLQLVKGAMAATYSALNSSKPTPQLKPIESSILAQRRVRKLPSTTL
Settings: at 0.1 µM
reported_metric: inhibition (%)
# unit: % | format: bare number

Answered examples (6):
| compound | result_unit | inhibition |
| --- | --- | --- |
| c1ccc(-c2n[nH]cc2-c2ccnc(-c3ccc(OCCn4ccnc4)cc3)c2)nc1 | % | 0.66 |
| COc1ccc(-c2nn3ncccc3c2-c2ccnc(Nc3ccc(F)c(F)c3)n2)cc1 | % | 4.22 |
| COC(=O)Nc1nc2ccc(Oc3ccc(NC(=O)Nc4cc(C(F)(F)F)ccc4F)cc3)cc2s1 | % | 1.59 |
| CS(=O)(=O)Nc1ccc(-c2ccc3c(NC(=O)C4CC4)n[nH]c3c2)cc1 | % | 1.25 |
| O=C(O[C@H]1CN[C@H](C#Cc2cc3ncnc(Nc4ccc5c(ccn5Cc5cc(F)ccc5F)c4)c3s2)C1)N1CCOCC1 | % | 1.53 |
| COc1cc(N2CCN(C(C)C)CC2)ccc1Nc1nc(Nc2cccc(F)c2C(=O)O)c2cc[nH]c2n1 | % | 4.06 |

Q: Specify measured inhibition for `COc1cccc(-n2ncc3c(N/N=C/c4ccc(C(=O)NCCN(C)C)cc4)ncnc32)c1` .
Result: 1.48

Q: Specify measured inhibition for `COc1cc2c(cc1Nc1nc(Nc3cccc(F)c3C(N)=O)c3cc[nH]c3n1)N(C(=O)CN1CCN(C(C)C)CC1)CC2` .
Result: 4.37

Q: Specify measured inhibition for `OCCCNc1nccc(-c2c(-c3ccc(F)cc3)nn3cc(C(F)(F)F)ccc23)n1` .
Result: 1.23

Q: Specify measured inhibition for `CN(C)CCNC(=O)Nc1ccc(N(C)c2ccnc(Nc3ccc(CS(C)(=O)=O)cc3)n2)cc1` .
Result: 2.03

Q: Specify measured inhibition for `CS(=O)(=O)Nc1ccc(-c2cc(-c3ccccc3)cc(C(N)=O)c2N)cc1` .
Result: -1.14

---

Target: Protein kinase C gamma type (Homo sapiens) (UniProt P05129);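 note: each value is an averaged percent inhibition of the enzyme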
Conditions: at 1 µM
Think of 0.9% as a floor: if inhibition stands on it or above, it is Criterion met; beneath it, Criterion not met.

Check out these entries, answers already filled in.
| compound_smiles | answer_label |
| --- | --- |
| NS(=O)(=O)c1ccc(N/N=C2\C(=O)Nc3ccc(C(=O)NCc4ccncc4)cc32)cc1 | Criterion met |
| COc1cc(N2CCN(C(C)C)CC2)ccc1Nc1nc(Nc2cccc3ncccc23)c2cc[nH]c2n1 | Criterion not met |
| O=C(O[C@H]1CN[C@H](C#Cc2cc3ncnc(Nc4ccc5c(ccn5Cc5cc(F)ccc5F)c4)c3s2)C1)N1CCOCC1 | Criterion met |
| COc1ccc(Nc2ncc(-c3ccccc3)o2)cc1OC | Criterion met |

Q: Is reported inhibition greater than or equal to 0.9% here: `COc1ccc(-c2nn3ncccc3c2-c2ccnc(Nc3ccc(F)c(F)c3)n2)cc1`
Result: Criterion met

Q: Is reported inhibition greater than or equal to 0.9% here: `CS(=O)(=O)CCNCc1ccoc1-c1ccc2ncnc(Nc3ccc(OCc4ccccc4)cc3)c2c1`
Result: Criterion not met

---

This listing pairs molecules with measured inhibition.
Biological target: Discoidin domain-containing receptor 2 (Homo sapiens) (UniProt Q16832)
Sequence (whole entry): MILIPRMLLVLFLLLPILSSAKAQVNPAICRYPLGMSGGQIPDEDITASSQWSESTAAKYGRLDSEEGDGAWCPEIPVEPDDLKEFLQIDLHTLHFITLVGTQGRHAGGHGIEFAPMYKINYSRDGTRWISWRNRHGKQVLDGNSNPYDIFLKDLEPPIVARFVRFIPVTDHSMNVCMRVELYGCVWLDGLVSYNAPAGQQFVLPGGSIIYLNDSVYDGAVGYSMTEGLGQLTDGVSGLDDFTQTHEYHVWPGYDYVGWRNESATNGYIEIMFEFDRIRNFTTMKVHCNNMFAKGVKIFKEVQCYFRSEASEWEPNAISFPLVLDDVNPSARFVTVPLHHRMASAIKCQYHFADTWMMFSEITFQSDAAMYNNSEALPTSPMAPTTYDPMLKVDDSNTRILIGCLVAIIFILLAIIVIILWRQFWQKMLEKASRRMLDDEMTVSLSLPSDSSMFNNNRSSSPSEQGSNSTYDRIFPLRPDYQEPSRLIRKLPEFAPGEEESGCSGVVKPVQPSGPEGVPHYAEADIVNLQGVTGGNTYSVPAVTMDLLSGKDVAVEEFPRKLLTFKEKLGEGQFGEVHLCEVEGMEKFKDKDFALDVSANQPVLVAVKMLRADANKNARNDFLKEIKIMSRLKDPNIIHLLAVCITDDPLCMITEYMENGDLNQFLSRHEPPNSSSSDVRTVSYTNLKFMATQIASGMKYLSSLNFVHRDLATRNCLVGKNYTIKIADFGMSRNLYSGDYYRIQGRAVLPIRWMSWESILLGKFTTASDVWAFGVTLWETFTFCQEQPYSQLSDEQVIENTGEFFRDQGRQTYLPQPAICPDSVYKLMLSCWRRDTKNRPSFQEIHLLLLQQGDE
Conditions: at 0.1 µM
# unit: % | format: bare number

Q: Recall the reported inhibition of `COc1cc(N2CCN(C(C)C)CC2)ccc1Nc1nc(Nc2cccc3ncccc23)c2cc[nH]c2n1` when tested on Discoidin domain-containing receptor 2 (Homo sapiens) (UniProt Q16832).
Result: 4.81

Q: Recall the reported inhibition of `COc1c(C(N)=O)cc(-c2ccc(Cl)cc2)cc1-c1ccc(S(N)(=O)=O)cc1` when tested on Discoidin domain-containing receptor 2 (Homo sapiens) (UniProt Q16832).
Result: 1.62

Q: Recall the reported inhibition of `CS(=O)(=O)CCNCc1ccoc1-c1ccc2ncnc(Nc3ccc(OCc4ccccc4)cc3)c2c1` when tested on Discoidin domain-containing receptor 2 (Homo sapiens) (UniProt Q16832).
Result: 5.97

Q: Recall the reported inhibition of `Cc1ccc(-c2cc3c(NC(=O)C4CC4)ncnc3o2)cc1` when tested on Discoidin domain-containing receptor 2 (Homo sapiens) (UniProt Q16832).
Result: 0.26

Q: Recall the reported inhibition of `N#Cc1ccc2c(-c3ccnc(NC4CC4)n3)c(-c3ccc(F)cc3)nn2c1` when tested on Discoidin domain-containing receptor 2 (Homo sapiens) (UniProt Q16832).
Result: 4.32

Q: Recall the reported inhibition of `Cn1c(-c2nonc2N)nc2cnccc21` when tested on Discoidin domain-containing receptor 2 (Homo sapiens) (UniProt Q16832).
Result: 0.53

Q: Recall the reported inhibition of `CCOc1ccc2c(-c3ccnc(Nc4cc(OC)cc(C(F)(F)F)c4)n3)cnn2n1` when tested on Discoidin domain-containing receptor 2 (Homo sapiens) (UniProt Q16832).
Result: -0.19

Q: Recall the reported inhibition of `Cc1c2ccc(N(C)c3ccnc(Nc4cccc(S(N)(=O)=O)c4)n3)cc2nn1C` when tested on Discoidin domain-containing receptor 2 (Homo sapiens) (UniProt Q16832).
Result: 11.4

Q: Recall the reported inhibition of `CN(c1ccc(NC(=O)NCCN2CCOCC2)cc1)c1ccnc(Nc2ccc(CS(C)(=O)=O)cc2)n1` when tested on Discoidin domain-containing receptor 2 (Homo sapiens) (UniProt Q16832).
Result: 24.3

Q: Recall the reported inhibition of `O=C(Nc1n[nH]c2nnc(-c3cccnc3)cc12)C1CC1` when tested on Discoidin domain-containing receptor 2 (Homo sapiens) (UniProt Q16832).
Result: -0.82

Q: Recall the reported inhibition of `COc1cc(N2CCN(C(C)C)CC2)ccc1Nc1nc(Nc2cccc(F)c2C(=O)O)c2cc[nH]c2n1` when tested on Discoidin domain-containing receptor 2 (Homo sapiens) (UniProt Q16832).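 Note: reported values are mean percent inhibition of DDR2.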
Result: 1.68

Data origin: ChEMBL document CHEMBL1961873
